Below: molecules with Ki recorded for D(3) dopamine receptor (Homo sapiens) in separate published works.
Respond with the bare value in nM.

Here is how some molecules turned out for Ki.
INSERT INTO assay_data (sample_smiles, assayed_system, measure_name, unit, measured_number) VALUES
  ('FCCOc1ccccc1N1CCN(Cc2cnn3ccccc23)CC1', 'D(3) dopamine receptor (Homo sapiens)', 'Ki', 'nM', 320),
  ('COc1ccccc1N1CCN(CCCCNC(=O)c2ccc(-n3ccnc3)cc2)CC1', 'D(3) dopamine receptor (Homo sapiens)', 'Ki', 'nM', 4.79);

Requested field: Ki. Item: CC(=O)Nc1ccc(CN2C[C@H]3COc4ccc(C#N)cc4[C@@H]3C2)cc1 20

* * *

Below: compounds with Ki recorded for D(3) dopamine receptor (Homo sapiens) in separate published works.

Here is how some compounds turned out for Ki.
INSERT INTO measurements (compound, result) VALUES
  ('N#Cc1cc(F)cc(C#Cc2csc(F)n2)c1', '> 10 µM'),
  ('CCc1cc(OC)ccc1C1Cc2ccccc2CN1C (centres undefined)', '> 10 µM');

Requested field: Ki. Item: Cc1ccnc(N2CCN(CCC3NC(=O)c4ccccc43)CC2)c1 (centres undefined) > 3 µM

Requested field: Ki. Item: COc1c(C(=O)NCCN2CCN(c3cccc(C)c3)CC2)cc(Br)c2ccccc12 0.316 µM

* * *

Below: compounds with Ki recorded for D(3) dopamine receptor (Homo sapiens) in separate published works.
Entries whose Ki is below 6 nM take true (1); entries at or above 6 nM take false (0).

INSERT INTO measurements (compound, assigned_label) VALUES
  ('CC(=O)NC1(c2ccc(Cl)cc2)CCN(Cc2c[nH]c3ccccc23)CC1', 'false (0)'),
  ('Clc1cccc(N2CCN(CCc3cn(-c4ccn5nccc5c4)nn3)CC2)c1Cl', 'true (1)'),
  ('CNC(=O)c1cccc(-c2ccc(C(=O)NCCCCN3CCc4ccc(OS(=O)(=O)C(F)(F)F)cc4C3)cc2)c1', 'true (1)'),
  ('CSc1ncc2c(n1)CC(CN1CCC(c3noc4cc(F)ccc34)CC1)CC2=O (stereo not given)', 'false (0)');

We next turn to a different compound, shown below.
Does the reported Ki of N#Cc1ccc2c(c1)CCN(CC[C@H]1CC[C@H](NC(=O)/C=C/c3cccc(F)c3)CC1)CC2 stay below 6 nM? false (0)

* * *

Below: compounds with Ki recorded for D(3) dopamine receptor (Homo sapiens, UniProt P35462) in separate published works.
Respond with the bare value in nM.

Here is how some compounds turned out for Ki.
INSERT INTO assay_data (compound, measure_name, measured_number) VALUES
  ('c1ccc(CN2CCC(n3cnc(-c4ccccc4)c3)CC2)cc1', 'Ki', 740),
  ('O=C(NCCCCN1CCN(c2ccccc2)CC1)c1ccc2ccccc2n1', 'Ki', 61);

Okay, now this compound:
Checklist item: Ki tested on D(3) dopamine receptor (Homo sapiens, UniProt P35462), entry FC(F)(F)c1nc2ccc3c(c2[nH]1)OC(CNCc1ccccc1)CC3 (racemic) , value? 263

* * *

pKi: −log10 of the molar value.
Below: compounds with pKi recorded for D(3) dopamine receptor (Homo sapiens, UniProt P35462) in separate published works.
Values of pKi greater than or equal to 7 map to met; values below map to not met.

INSERT INTO assay_data (compound, assigned_label) VALUES
  ('Fc1ccc(CN2CCCC3(CCN(Cc4cc5ccc(Cl)cc5[nH]4)C3)C2)cc1F (stereo not drawn)', 'not met'),
  ('Clc1ccc(N2CCN(Cc3cc4ccccn4n3)CC2)cc1', 'not met');

Could you please find out whether CCN(CC)CCOCCOC1(c2ccccc2)CCCC1 has pKi that meets 7 or exceeds it? not met

Could you please find out whether C=CCOC1(c2ccc(Cl)cc2)CCN(Cc2c[nH]c3ccccc23)CC1 has pKi that meets 7 or exceeds it? not met

* * *

Below: compounds with pKi recorded for D(3) dopamine receptor (Homo sapiens) in separate published works.
Note on pKi: it is the negative log10 of concentration, concentration in mol/L.

Here is how some compounds turned out for pKi.
INSERT INTO measurements (sample_smiles, measured_number) VALUES
  ('COc1ccc2c3c(c(=O)oc2c1OC)CN(Cc1ccccc1)CC3', 5.89),
  ('CCCCn1cc(CCCOc2ccc(C(=O)NCCCCN(CCC)C3Cc4ccccc4C3)cc2OC)nn1', 9.15);

Okay, now this compound:
Requested field: pKi. Item: Cc1ccc(OCCNCCCSc2ccccc2)cc1 7.25

* * *

Below: compounds with Ki recorded for UniProt P35462 in separate published works.
Entries whose Ki is below 8 nM take TRUE; entries at or above 8 nM take FALSE.

Does the reported Ki of CCCN(CCCCNC(=O)/N=N/c1ccc(F)cc1)C1Cc2ccccc2C1 stay below 8 nM? TRUE

Does the reported Ki of CN(C)C[C@H]1CC2c3ccccc3Sc3ccc(F)cc3[C@H]2O1 (stereo in doubt; 8d) stay below 8 nM? TRUE

Does the reported Ki of C[C@H]1CO[C@@H](c2ccc(N)nc2)CN1CCn1cc(CNC(=O)c2cc3ccccc3[nH]2)nn1 stay below 8 nM? FALSE

Does the reported Ki of CN[C@@H]1c2cc3ccn(S(=O)(=O)c4ccccc4)c3cc2[C@H]1CCO (relative stereo) stay below 8 nM? FALSE

Does the reported Ki of COc1ccc(N(Cc2ccccc2F)NC(=O)NCCCN2CCN(c3ccccc3OC)CC2)cc1 stay below 8 nM? FALSE

Does the reported Ki of COc1ccccc1N1CCN(CCCCNC(=O)c2cc3cc(OCCOCCF)ccc3[nH]2)CC1 stay below 8 nM? TRUE

Does the reported Ki of Cc1cccc(=O)n1CCCCN1CCN(c2cc(C(F)(F)F)nc(C(C)(C)C)n2)CC1 stay below 8 nM? FALSE

Does the reported Ki of COc1ccc(C2(O)CCN(Cc3c[nH]c4ccccc34)CC2)cc1 stay below 8 nM? FALSE

Does the reported Ki of O=C(NCCCCN1CCN(c2cccc(Cl)c2)CC1)c1ccc2ccccc2c1 stay below 8 nM? TRUE

Does the reported Ki of COc1ccc2c(c1)OCCN(C)CCc1ccccc1C2 stay below 8 nM? FALSE

Does the reported Ki of CS(=O)(=O)Oc1ccc2c(c1)CCN(CC[C@H]1CC[C@H](NC(=O)c3cccc(-c4ncccn4)c3)CC1)CC2 stay below 8 nM? TRUE

Does the reported Ki of O=[N+]([O-])c1ccc(OCCNCCCOc2ccccc2)cc1 stay below 8 nM? FALSE

Does the reported Ki of CS(=O)(=O)Oc1ccc2c(c1)CN(CC[C@H]1CC[C@H](NC(=O)/C=C/c3ccc(F)cc3)CC1)C2 stay below 8 nM? TRUE

Does the reported Ki of O=C1CC2(CCCC2)CC(=O)N1CCCCN[C@@H]1CCc2c(F)cccc2C1 stay below 8 nM? TRUE

* * *

pKi: −log10 of the molar value.
Below: compounds with pKi recorded for D(3) dopamine receptor (Homo sapiens, UniProt P35462) in separate published works.
Values of pKi greater than or equal to 7 map to true; values below map to false.

Worked set:
INSERT INTO measurements (compound, assayed_system, assigned_label) VALUES
  ('Clc1ccc(N2CCN(Cc3cccn4nccc34)CC2)cc1', 'D(3) dopamine receptor (Homo sapiens, UniProt P35462)', 'false'),
  ('CCc1cc(Cl)c(OC)c(C(=O)NC[C@@H]2CCCN2CCCc2ccccc2)c1O', 'D(3) dopamine receptor (Homo sapiens, UniProt P35462)', 'true'),
  ('CCCCC1CCN(CCCN2C(=O)CCc3ccccc32)CC1', 'D(3) dopamine receptor (Homo sapiens, UniProt P35462)', 'false'),
  ('COc1ccccc1C(=O)NCCCCN1CCO[C@@H]2c3ccccc3OC[C@H]21 (racemic)', 'D(3) dopamine receptor (Homo sapiens, UniProt P35462)', 'true');

Could you please find out whether CCc1cc(Cl)c(OC)c(C(=O)NC[C@@H]2CCCN2CCc2c(C)nc3n(c2=O)CCCC3)c1O has pKi that meets 7 or exceeds it? true

* * *

Below: molecules with Ki recorded for D(3) dopamine receptor (Homo sapiens) in separate published works.
Respond with the bare value in nM.

Requested field: Ki. Item: CCS(=O)(=O)c1ccc(OC)c(-c2ccc(CN3CCCCCC3c3ccc(OC)cc3)[nH]2)c1 (stereo not drawn) 1.58

Requested field: Ki. Item: Clc1ccc(CN2CCC(c3cc(-c4ccc(Cl)cc4)no3)CC2)cc1 80

Requested field: Ki. Item: N#Cc1cnn2ccc(OCCCCN3CCN(c4cccc(Cl)c4Cl)CC3)cc12 1.5

* * *

Below: molecules with Ki recorded for D(3) dopamine receptor (Homo sapiens, UniProt P35462) in separate published works.
Respond with the bare value in nM.

Here is how some molecules turned out for Ki.
INSERT INTO measurements (molecule, assayed_system, measured_number) VALUES
  ('O=Cc1cccc2c(CN3CCN(c4ccc(Cl)cc4)CC3)cnn12', 'D(3) dopamine receptor (Homo sapiens, UniProt P35462)', 5900),
  ('COc1ccc(S(=O)(=O)N(C)C)cc1-c1ccc(CN2CCCCCC2c2ccccc2)[nH]1 (stereo not drawn)', 'D(3) dopamine receptor (Homo sapiens, UniProt P35462)', 2),
  ('Cc1ccc(CNCC2(F)CCN(C(=O)c3coc4ccccc34)CC2)nc1', 'D(3) dopamine receptor (Homo sapiens, UniProt P35462)', 12000),
  ('COc1ccccc1N1CCN(CNC(=O)c2cccc(Cl)c2)CC1', 'D(3) dopamine receptor (Homo sapiens, UniProt P35462)', 1450);

Checklist item: Ki tested on D(3) dopamine receptor (Homo sapiens, UniProt P35462), entry CCCN(CCNC(=O)/C=C/c1ccc(F)cc1)C1Cc2ccccc2C1 , value? 14

Checklist item: Ki tested on D(3) dopamine receptor (Homo sapiens, UniProt P35462), entry Cc1ccccc1N1CCN(CCCN2C(=O)CCc3ccccc32)CC1 , value? 275

Checklist item: Ki tested on D(3) dopamine receptor (Homo sapiens, UniProt P35462), entry c1ccc(CN2CCC(c3cc(-c4ccccc4)[nH]n3)CC2)cc1 , value? 1400

Checklist item: Ki tested on D(3) dopamine receptor (Homo sapiens, UniProt P35462), entry Cc1ccc(OCCNCCCOc2ccccc2C)cc1 , value? 381

Checklist item: Ki tested on D(3) dopamine receptor (Homo sapiens, UniProt P35462), entry COc1ccc(/C=C/C(=O)NCCCCN2CCN(c3ccccc3OC)CC2)cc1 , value? 0.38
